Molecular target: T1, human NMI (N-myc Interacting protein), recombinant protein (human, UniProt Q13287 1-307, limits assumed)
T1 construct: Gene ID: 9111; also called hNMI; antigen
T1 sequence (looked up): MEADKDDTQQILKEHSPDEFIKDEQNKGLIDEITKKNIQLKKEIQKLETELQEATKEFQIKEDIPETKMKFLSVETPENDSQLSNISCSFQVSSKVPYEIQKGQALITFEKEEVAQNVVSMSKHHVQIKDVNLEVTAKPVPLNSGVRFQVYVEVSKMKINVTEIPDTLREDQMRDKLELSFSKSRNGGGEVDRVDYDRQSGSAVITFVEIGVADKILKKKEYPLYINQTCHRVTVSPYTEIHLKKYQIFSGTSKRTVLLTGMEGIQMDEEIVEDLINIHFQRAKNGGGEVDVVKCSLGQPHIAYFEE
Test: ELISA, binding to hNMI
Metric: pEC50
Please report pEC50 as the negative decimal logarithm of the molar concentration, giving only the number.

Q) Item 98G10-10 (antibody, V domains shown, also called 98G10 T23K/T75D/T81Y (VH), T18R/Q70D/C80P (VL)) VH: QEQLEESGGDLVKPEGSLTLTCKASGFSFSASYWICWVRQAPGKGLEWIACIYGGSSGSAYYASWAKGRFTISKDSSTTVYLQMTSLTAADTATYFCARAGYYNYGSAGDIYPSSFKLWGPGTLVTVSS VL: DIVMTQTPASVEAAVGGRVTINCQASQSISTALAWYQQKPGQPPKLLIYTASKVASGVPSRFSGSGSGTDFTLTISDLEPADAATYYCQNYYYSSSSITFGGGTEVVVK : provide pEC50
A) 9.77

Q) Quickly give me recorded pEC50 for 98G10-1 (mutated antibody of Table 17-7) (antibody, V domains shown, also called 98G10 C80P (VL)) VH: QEQLEESGGDLVKPEGSLTLTCTASGFSFSASYWICWVRQAPGKGLEWIACIYGGSSGSAYYASWAKGRFTISKTSSTTVTLQMTSLTAADTATYFCARAGYYNYGSAGDIYPSSFKLWGPGTLVTVSS VL: DIVMTQTPASVEAAVGGTVTINCQASQSISTALAWYQQKPGQPPKLLIYTASKVASGVPSRFSGSGSGTQFTLTISDLEPADAATYYCQNYYYSSSSITFGGGTEVVVK
A) 9.76

Q) Tell me pEC50 reported for 98G10-8 (antibody, V domains shown, also called 98G10 T23K/T75D/T81Y (VH), T18R/C80P (VL)) VH: QEQLEESGGDLVKPEGSLTLTCKASGFSFSASYWICWVRQAPGKGLEWIACIYGGSSGSAYYASWAKGRFTISKDSSTTVYLQMTSLTAADTATYFCARAGYYNYGSAGDIYPSSFKLWGPGTLVTVSS VL: DIVMTQTPASVEAAVGGRVTINCQASQSISTALAWYQQKPGQPPKLLIYTASKVASGVPSRFSGSGSGTQFTLTISDLEPADAATYYCQNYYYSSSSITFGGGTEVVVK
A) 9.98

Q) Please list pEC50 recorded for the binder 98G10-2 (antibody, V domains shown, also called 98G10 T81Y (VH)) VH: QEQLEESGGDLVKPEGSLTLTCTASGFSFSASYWICWVRQAPGKGLEWIACIYGGSSGSAYYASWAKGRFTISKTSSTTVYLQMTSLTAADTATYFCARAGYYNYGSAGDIYPSSFKLWGPGTLVTVSS VL: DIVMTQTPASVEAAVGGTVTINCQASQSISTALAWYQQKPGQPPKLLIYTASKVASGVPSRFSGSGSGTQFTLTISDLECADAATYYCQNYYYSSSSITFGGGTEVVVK
A) 10.32

Q) Return the recorded pEC50 value; entry: 98G10-9 (antibody, V domains shown, also called 98G10 T23K/T81Y (VH), T18R/Q70D/C80P (VL)) VH: QEQLEESGGDLVKPEGSLTLTCKASGFSFSASYWICWVRQAPGKGLEWIACIYGGSSGSAYYASWAKGRFTISKTSSTTVYLQMTSLTAADTATYFCARAGYYNYGSAGDIYPSSFKLWGPGTLVTVSS VL: DIVMTQTPASVEAAVGGRVTINCQASQSISTALAWYQQKPGQPPKLLIYTASKVASGVPSRFSGSGSGTDFTLTISDLEPADAATYYCQNYYYSSSSITFGGGTEVVVK
A) 9.92
